procedure.details: Acute oral toxicity in rats
Assay type: in vivo
measurement.context: rat, in vivo, po, ♀ rats, after 24 hours
measurement.type: LD50 at 24 h (mg/kg)
Answers are plain numbers, in mg/kg.

Using the record for O=S1(=O)NC(O)c2ccccc21 (stereo not shown) , state its measured LD50 at 24 h.
860

###

procedure.details: Acute oral toxicity in rats
Assay type: in vivo
measurement.context: rat, in vivo, po, ♂ + ♀ rats, after 48 hours
measurement.type: LD50 at 48 h

Using the record for O=S1(=O)NC(O)c2ccccc21 (stereo not shown) , state its measured LD50 at 48 h.
1020 mg/kg

###

procedure.details: Acute oral toxicity in rats
Assay type: in vivo
measurement.context: rat, in vivo, po, ♀ rats, after 14 days
measurement.type: LD50 at 336 h

Using the record for O=S1(=O)NC(O)c2ccccc21 (stereo not shown) , state its measured LD50 at 336 h.
860 mg/kg

###

procedure.details: Acute oral toxicity in rats
Type: in vivo
measurement.context: rat, in vivo, po, ♂ + ♀ rats, after 24 hours
measurement.type: LD50 at 24 h (mg/kg)
One number for each entry, in mg/kg.

Using the record for O=S1(=O)NC(O)c2ccccc21 (stereo not shown) , state its measured LD50 at 24 h.
1070

###

procedure.details: Acute oral toxicity in rats
Type: in vivo
measurement.context: rat, in vivo, po, ♂ + ♀ rats, after 14 days
measurement.type: LD50 at 336 h (mg/kg)
Give bare numbers, in mg/kg.

Using the record for O=S1(=O)NC(O)c2ccccc21 (stereo not shown) , state its measured LD50 at 336 h.
1020

###

procedure.details: Acute oral toxicity in rats
Format: in vivo
measurement.context: rat, in vivo, po, ♂ rats, after 24 hours
measurement.type: LD50 at 24 h (mg/kg)
One number for each entry, in mg/kg.

Using the record for O=S1(=O)NC(O)c2ccccc21 (stereo not shown) , state its measured LD50 at 24 h.
1380

###

procedure.details: Acute oral toxicity in rats
Assay type: in vivo
measurement.context: rat, in vivo, po, ♂ rats, after 48 hours
measurement.type: LD50 at 48 h (mg/kg)
Answers are plain numbers, in mg/kg.

Using the record for O=S1(=O)NC(O)c2ccccc21 (stereo not shown) , state its measured LD50 at 48 h.
1220
